These data points were gathered from paper PMC7023381.

# test-system: MreCA (Malassezia restricta, UniProt A0A3G2S4B9)
# Construct: gene can; recombinant from synthetic gene in pET100D-Topo, E. coli BL21(DE3) codon plus; N-terminal His6-tag fusion, 27 kDa on SDS-PAGE; no tag cleavage told
# Sequence (A0A3G2S4B9 1-238): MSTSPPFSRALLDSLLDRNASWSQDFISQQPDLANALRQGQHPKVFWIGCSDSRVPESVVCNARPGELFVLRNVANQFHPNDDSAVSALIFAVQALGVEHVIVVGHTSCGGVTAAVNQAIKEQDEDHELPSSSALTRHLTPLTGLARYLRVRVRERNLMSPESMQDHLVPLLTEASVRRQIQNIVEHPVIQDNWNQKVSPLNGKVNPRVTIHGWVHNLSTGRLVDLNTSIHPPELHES
# assay-method-text: stopped-flow CO2 hydrase assay
# Type: biochemical
# measurement-parameters: read-out: MreCA
pKi: −log10 of the molar value.
observable: pKi

>>> result("NS(=O)(=O)Cc1noc2ccccc12")
"< 5.00"
>>> result("Cc1onc(-c2ccccc2)c1-c1ccc(S(N)(=O)=O)cc1")
6.11
>>> result("Cn1nc(S(N)(=O)=O)sc1=N")
"< 5.00"

====

Each item that follows carries a reported Ki.
# test-system: MreCA (Malassezia restricta)
# Construct: gene can; recombinant from synthetic gene in pET100D-Topo, E. coli BL21(DE3) codon plus; N-terminal His6-tag fusion, 27 kDa on SDS-PAGE; no tag cleavage told
# assay-method-text: stopped-flow CO2 hydrase assay
# Format: biochemical
# measurement-parameters: read-out: MreCA
observable: Ki (µM)

>>> number("Nc1ccc(S(N)(=O)=O)cc1F [compound 7, 7]")
4.59
>>> number("Cc1ccc(S(N)(=O)=O)cc1 [compound 4, 4]")
4.04
>>> number("NS(=O)(=O)c1cc(Cl)c(Cl)c(S(N)(=O)=O)c1 [DCP]")
3.06
>>> number("NS(=O)(=O)c1ccc(CO)cc1 [compound 16, 16]")
6.51
>>> number("Nc1nccc(Nc2ccc(S(N)(=O)=O)cc2)n1 [compound 19, 19]")
7.79
>>> number("CC(=O)N=c1sc(S(N)(=O)=O)nn1C [MZA]")
3.9
>>> number("Nc1ccc(S(=O)(=O)Nc2ccc(S(N)(=O)=O)cc2)cc1 [compound 22, 22]")
3.74
>>> number("CCN[C@H]1CN(CCCOC)S(=O)(=O)c2sc(S(N)(=O)=O)cc21 [BRZ]")
0.7
>>> number("Cc1ccc(-c2cc(C(F)(F)F)nn2-c2ccc(S(N)(=O)=O)cc2)cc1 [CLX]")
1.4
>>> number("NS(=O)(=O)c1ccc(S(=O)(=O)Nc2cccc3c(Cl)c[nH]c23)cc1 [IND]")
0.87
>>> number("NS(=O)(=O)c1cc2c(cc1Cl)NCNS2(=O)=O [HCT]")
8.5
>>> number("CC1(C)O[C@@H]2[C@@H](CO[C@@]3(COS(N)(=O)=O)OC(C)(C)O[C@@H]23)O1 [TPM]")
3.83
>>> number("O=C1NS(=O)(=O)c2ccccc21 [SAC]")
6.2

====

# test-system: MreCA (Malassezia restricta, UniProt A0A3G2S4B9)
# Construct: gene can; recombinant from synthetic gene in pET100D-Topo, E. coli BL21(DE3) codon plus; N-terminal His6-tag fusion, 27 kDa on SDS-PAGE; no tag cleavage told
# Sequence (A0A3G2S4B9 1-238): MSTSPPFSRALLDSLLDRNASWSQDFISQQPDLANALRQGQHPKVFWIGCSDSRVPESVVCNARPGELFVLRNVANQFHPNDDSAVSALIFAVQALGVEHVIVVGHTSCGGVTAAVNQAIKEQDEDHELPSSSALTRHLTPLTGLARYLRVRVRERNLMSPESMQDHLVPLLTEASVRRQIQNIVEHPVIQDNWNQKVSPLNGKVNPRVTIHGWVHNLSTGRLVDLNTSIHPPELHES
# assay-method-text: stopped-flow CO2 hydrase assay
# Assay type: biochemical
# measurement-parameters: read-out: MreCA
Item-by-item account of Ki
observable: Ki (µM)

>>> number("CCN1CCCC1CNC(=O)c1cc(S(N)(=O)=O)ccc1OC (stereo not shown) [SLP]")
4.85
>>> number("Nc1cc(C(F)(F)F)c(S(N)(=O)=O)cc1S(N)(=O)=O [compound 11, 11]")
6.76
>>> number("NS(=O)(=O)c1nnc(NS(=O)(=O)c2ccccc2)s1 [BZA]")
7.15
>>> number("NS(=O)(=O)c1ccc(N2CCCCS2(=O)=O)cc1 [SLT]")
0.67
>>> number("Nc1ccc(S(N)(=O)=O)cc1 [compound 2, 2]")
4.62
>>> number("Nc1ccc(S(=O)(=O)Nc2nnc(S(N)(=O)=O)s2)cc1 [compound 20, 20]")
0.91
